# protocolText: Randomized single-dose 4-way crossover bioequivalence/bioavailability study, fasting
# Set-up: species or system human (healthy female volunteers)
# assaySetup: female, human, in vivo, iv
reportedMetric: clearance (mL/min)
Note: unit mL/min is implicit; provide only the numeric part.

stdin: So what does the record say about clearance for NC[C@H]1CC[C@H](C(=O)O)CC1 ?
stdout: 137
